A collection of molecules and their measured %Inh
# Test system: JAK1(JH1domain-catalytic)
# conditionSet: concentration: 1 μM, replicates: in singlicate; n = 1;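 note: KINOMEscan kinase panel screen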

{"molecule": "FC(F)(F)c1ccc(-c2nn3ncccc3c2-c2ccnc(Nc3cccc(C(F)(F)F)c3)n2)cc1 [GW828205]", "%Inh, %": 0}
{"molecule": "Fc1cccc(COc2ccc(Nc3ncnc4nn5ccccc5c34)cc2Cl)c1 [GW689066]", "%Inh, %": 2}
{"molecule": "COc1ccc(NC(=O)Nc2ccc(C)c(-c3ccc(C(=O)Nc4ccncc4)cc3)c2)cc1 [GSK1398475]", "%Inh, %": 11}
{"molecule": "CC(=O)Nc1n[nH]c2ncc(-c3ccccc3)cc12 [SB-548492]", "%Inh, %": 0}
{"molecule": "Fc1ccc(-c2ncn(CCCNCc3ccccc3)c2-c2ccncc2)cc1", "%Inh, %": 0}
{"molecule": "Nc1nc(-c2ccccn2)c(-c2ccnc3ccccc23)s1 [GW548057]", "%Inh, %": 28}
{"molecule": "Cl.c1ccc(Cn2ccc3cc(Nc4ncnc5ccccc45)ccc32)cc1 [GW275568]", "%Inh, %": 18}
{"molecule": "Cl.c1ccc(Cn2ncc3cc(Nc4ncnc5ccccc45)ccc32)cc1 [GW273749]", "%Inh, %": 8}
{"molecule": "CC(C)(C)OC(=O)NC1CCCN(c2cc(-c3ccc4c(N)n[nH]c4c3)nc(N)n2)C1 (stereo not shown) [GSK2286096]", "%Inh, %": 6}
{"molecule": "C[C@H]1CC[C@@H](C(=O)Nc2ccccc2)CN1c1cc(-c2ccc3c(N)n[nH]c3c2)nc(N)n1 [GSK2283293]", "%Inh, %": 0}
{"molecule": "COC(=O)c1c(-c2ccccc2)c2cc(Cl)ccc2c(=O)n1Cc1ccc(S(C)(=O)=O)cc1", "%Inh, %": 0}
{"molecule": "Cl.Fc1ccccc1COc1ccc(Nc2ncnc3ccc(-c4nnc(C(F)(F)F)o4)cc23)cc1Cl [GW424170]", "%Inh, %": 7}
{"molecule": "C[C@@H]1CCN(C(=O)CO)C[C@@H]1N(C)c1ncnc2[nH]ccc12", "%Inh, %": 94}
{"molecule": "CNc1nccc(-c2c(-c3ccc(F)cc3)ncn2CCCN2CCOCC2)n1 [SB-222516]", "%Inh, %": 0}
{"molecule": "COc1cc2ncnc(Nc3ccc(OCc4ccccc4Br)c(Cl)c3)c2cc1OC.Cl [GI261590]", "%Inh, %": 17}
{"molecule": "CCn1c(-c2ccncc2)nc2cnccc21 [SB-735216]", "%Inh, %": 15}
{"molecule": "CSc1nn2c(=O)cc(N3CCOCC3)nc2n1Cc1cccc(Cl)c1Cl [GSK2347225]", "%Inh, %": 24}
{"molecule": "CN1CCC(n2cnc(-c3ccc(F)cc3)c2-c2ccnc(NC3CCNCC3)n2)CC1 [SB-229482]", "%Inh, %": 0}
{"molecule": "Fc1cccc(COc2ccc(Nc3ncnc4sc(-c5ccc[nH]5)cc34)cc2Cl)c1 [GW707818]", "%Inh, %": 18}
{"molecule": "COc1ccc(NC(=O)c2ccc(-c3cc(-c4nnc(C)o4)ccc3C)cc2)cc1 [GW595885]", "%Inh, %": 9}
{"molecule": "Nc1n[nH]c2nnc(-c3ccccc3)cc12 [SB-517389]", "%Inh, %": 13}
{"molecule": "Cl.O=S(=O)(c1cccc(F)c1)c1ccc(Nc2ncnc3cc(Br)sc23)cc1Cl [GSK306886]", "%Inh, %": 15}
{"molecule": "COc1ccc(Nc2nccc(N3CCC(NC(=O)c4cccc(NC(C)=O)c4)C3)n2)cc1 (stereo not shown) [GSK1379732]", "%Inh, %": 15}
{"molecule": "Clc1cccc(-c2nc(Nc3ccncc3)c3ccccc3n2)c1 [GW873004]", "%Inh, %": 0}
{"molecule": "CCCc1ccc(S(=O)(=O)NC2CCN(c3ccnc(Nc4ccc(OC)cc4)n3)C2)cc1 (stereo not shown) [GSK1379737]", "%Inh, %": 34}

---

# System: CSNK2A1
# conditionSet: concentration: 1 μM, replicates: in singlicate; n = 1
Each entry below carries its recorded %Inh.
experimentalReadout: %Inh (%)

{"molecule": "O=c1cc(N2CCOCC2)nc2n(Cc3cccc(Cl)c3)ccn12 [GSK2296823]", "measuredTarget": "CSNK2A1", "experimentalReadout": "%Inh", "measureUnit": "%", "resultValue": 0}
{"molecule": "Fc1cccc(COc2ccc(Nc3ncnc4cc[nH]c34)cc2Cl)c1", "measuredTarget": "CSNK2A1", "experimentalReadout": "%Inh", "measureUnit": "%", "resultValue": 36}
{"molecule": "COc1ccc(-c2oc3ncnc(N)c3c2-c2ccc(OC)cc2)cc1 [SB-589132]", "measuredTarget": "CSNK2A1", "experimentalReadout": "%Inh", "measureUnit": "%", "resultValue": 30}
{"molecule": "CNc1nccc(-c2c(-c3ccc(F)cc3)ncn2CCCN2CCOCC2)n1 [SB-222516]", "measuredTarget": "CSNK2A1", "experimentalReadout": "%Inh", "measureUnit": "%", "resultValue": 6}
{"molecule": "Cc1cccc(-c2nc(Nc3ccc4[nH]nnc4c3)c3ccccc3n2)n1 [GW867587]", "measuredTarget": "CSNK2A1", "experimentalReadout": "%Inh", "measureUnit": "%", "resultValue": 80}
{"molecule": "CNc1nccc(-c2c(-c3ccc(F)cc3)ncn2C2CCN(C)CC2)n1 [SB-222903]", "measuredTarget": "CSNK2A1", "experimentalReadout": "%Inh", "measureUnit": "%", "resultValue": 0}
{"molecule": "FC(F)(F)c1ccc(-c2cc(-c3c[nH]nc3-c3ccccn3)ccn2)cc1 [GW599550]", "measuredTarget": "CSNK2A1", "experimentalReadout": "%Inh", "measureUnit": "%", "resultValue": 0}
{"molecule": "Nc1nc(-c2ccc3c(N)n[nH]c3c2)cc(N2CCCCC2)n1 [GSK2228768]", "measuredTarget": "CSNK2A1", "experimentalReadout": "%Inh", "measureUnit": "%", "resultValue": 0}
{"molecule": "Cn1ccc2ncnc(Nc3ccc(Oc4cccc(Cl)c4)c(Cl)c3)c21", "measuredTarget": "CSNK2A1", "experimentalReadout": "%Inh", "measureUnit": "%", "resultValue": 0}
{"molecule": "Nc1nc(-c2ccc3c(N)n[nH]c3c2)cc(N2CCC[C@@H](C(=O)Nc3ccccc3)C2)n1.O=C(O)C(F)(F)F.O=C(O)C(F)(F)F [GSK2288359]", "measuredTarget": "CSNK2A1", "experimentalReadout": "%Inh", "measureUnit": "%", "resultValue": 1}
{"molecule": "O=C(CCO)NCCn1ccc2ncnc(Nc3ccc(Oc4cccc(C(F)(F)F)c4)c(Cl)c3)c21", "measuredTarget": "CSNK2A1", "experimentalReadout": "%Inh", "measureUnit": "%", "resultValue": 0}
{"molecule": "CC(C)N1CCC(n2cnc(-c3ccc(F)cc3)c2-c2ccnc(N)n2)CC1 [SB-223132]", "measuredTarget": "CSNK2A1", "experimentalReadout": "%Inh", "measureUnit": "%", "resultValue": 0}
{"molecule": "COc1cc2c(Nc3cccc(NC(=O)c4ccccc4)c3)ncnc2cc1OCCCN1CCOCC1 [GSK223810]", "measuredTarget": "CSNK2A1", "experimentalReadout": "%Inh", "measureUnit": "%", "resultValue": 6}
{"molecule": "CSc1ccc(NC2=C(c3ccccc3Cl)C(=O)NC2=O)cc1 [SB-342411]", "measuredTarget": "CSNK2A1", "experimentalReadout": "%Inh", "measureUnit": "%", "resultValue": 2}
{"molecule": "C[C@@H]1CCN(C(=O)CO)C[C@@H]1N(C)c1ncnc2[nH]ccc12", "measuredTarget": "CSNK2A1", "experimentalReadout": "%Inh", "measureUnit": "%", "resultValue": 0}
{"molecule": "O=C(Nc1n[nH]c2nc(-c3ccco3)c(Br)cc12)c1ccc(CN2CCCC2)cc1.O=C(O)[C@H](O)[C@@H](O)C(=O)O [SB-742352]", "measuredTarget": "CSNK2A1", "experimentalReadout": "%Inh", "measureUnit": "%", "resultValue": 0}
{"molecule": "NC(=O)c1sc(-n2cnc3ccccc32)cc1OCc1ccccc1F [GSK1024306]", "measuredTarget": "CSNK2A1", "experimentalReadout": "%Inh", "measureUnit": "%", "resultValue": 10}
{"molecule": "Nc1n[nH]c2nnc(-c3ccccc3)cc12 [SB-517389]", "measuredTarget": "CSNK2A1", "experimentalReadout": "%Inh", "measureUnit": "%", "resultValue": 0}
{"molecule": "CC(=O)Nc1n[nH]c2ncc(-c3ccccc3)cc12 [SB-548492]", "measuredTarget": "CSNK2A1", "experimentalReadout": "%Inh", "measureUnit": "%", "resultValue": 20}
{"molecule": "Cc1ccc(O)cc1Nc1cc(C(F)(F)F)nc2ccc(-c3ccncc3)cc12 [GW630823]", "measuredTarget": "CSNK2A1", "experimentalReadout": "%Inh", "measureUnit": "%", "resultValue": 0}
{"molecule": "Clc1cccc(-c2nc(Nc3ccncc3)c3ccccc3n2)c1 [GW873004]", "measuredTarget": "CSNK2A1", "experimentalReadout": "%Inh", "measureUnit": "%", "resultValue": 0}
